target: VLP2 (virus-like particles, capsid protein particles of AAV serotype 2) (AAV serotype 2 (AAV2)) (UniProt P03135); test: ELISA on immobilised VLP2 (purified protein); start of alkali treatment, the reference of the ratio
Sequence (P03135 whole entry): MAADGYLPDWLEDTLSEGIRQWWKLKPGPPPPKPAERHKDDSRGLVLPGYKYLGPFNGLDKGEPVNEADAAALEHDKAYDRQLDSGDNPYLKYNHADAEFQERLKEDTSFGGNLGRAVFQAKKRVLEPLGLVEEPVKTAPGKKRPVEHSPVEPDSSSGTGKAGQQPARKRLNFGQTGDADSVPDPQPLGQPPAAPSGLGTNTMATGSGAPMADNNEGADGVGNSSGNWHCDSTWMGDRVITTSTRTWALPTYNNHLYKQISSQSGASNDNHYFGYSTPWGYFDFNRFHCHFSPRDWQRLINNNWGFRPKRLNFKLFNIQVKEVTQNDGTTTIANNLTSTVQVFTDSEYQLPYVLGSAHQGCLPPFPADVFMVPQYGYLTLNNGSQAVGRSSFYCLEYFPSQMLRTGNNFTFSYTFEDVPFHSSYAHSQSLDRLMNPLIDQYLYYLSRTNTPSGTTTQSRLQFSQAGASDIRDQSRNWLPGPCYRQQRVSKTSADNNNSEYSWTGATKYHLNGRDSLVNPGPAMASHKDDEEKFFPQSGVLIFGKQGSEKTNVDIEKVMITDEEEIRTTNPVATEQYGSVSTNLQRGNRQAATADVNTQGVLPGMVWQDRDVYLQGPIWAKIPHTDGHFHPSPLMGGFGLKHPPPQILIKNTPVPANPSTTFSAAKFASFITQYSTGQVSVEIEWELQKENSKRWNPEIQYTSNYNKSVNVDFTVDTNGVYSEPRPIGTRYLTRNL
Observable: Remaining activity [%]

AAV-binding protein AVR21 (receptor) MGSAGESDQITLPKHEAQLNVYVLLVPPKGEASTYDWQLITHPRDYSGEMEGEHSQILKLSNLTPGLYEYRAVVEGQNAHSEGYVNVTVEPEPRKNRPPIAIVSPQFQEISLPTTSTVIDGSQSTDDDKIVQYHWEELKGPLREEKISEDTAILKLSQLVPGNYTFRLTVVDTDGATDSTTADLTVNKAVDHHHHHH :: 100%

Here is another binder to look at.
Request: If you can, please state the reported Remaining activity [%] value of AVR25a (AVR21 with N329K, E401G, T426A, A461P) (receptor) MGSAGESDQITLPKHEAQLKVYVLLVPPKGEASTYDWQLITHPRDYSGEMEGEHSQILKLSNLTPGLYEYRAVVEGQNAHSEGYVNVTVEPGPRKNRPPIAIVSPQFQEISLPTTSAVIDGSQSTDDDKIVQYHWEELKGPLREEKISEDTPILKLSQLVPGNYTFRLTVVDTDGATDSTTADLTVNKAVDHHHHHH .
Response: 100%
